# target entity: NACHT, LRR and PYD domains-containing protein 3 (Mus musculus)
# assay summary: Inhibition of NLRP3 in mouse J774A.1 cells assessed as inhibition of LPS and nigerecin-induced IL-1beta production at 20 uM pre-stimulated with LPS for 5 hrs followed by compound treatment for 30 mins and then nigericin addition for 45 mins by ELISA
# Assay type: cell-based
# measurement conditions: J774.A1, time 75.0 min
The source made the active and inactive calls. The rule behind the calls is not given here.
measure: inhibition

compound	value reported
CCC1=C(Cc2ccoc2)C(=O)[C@@]2(C)CCCC(C)(C)[C@@H]2C1	Active
CC1=C(CCC2CCOC2)[C@@]2(C)CCCC(C)(C)[C@@H]2CC1=O (some centres undefined)	Active
CCCCCCCCCCCC(=O)O/N=C1/C[C@H]2C(C)(C)CCC[C@]2(C)C(CCc2ccoc2)=C1C	Active
CC1=C(CCc2ccoc2)[C@@]2(C)CCCC(C)(C)[C@@H]2C/C1=N/OC(=O)c1ccc(C(=O)O/N=C2/C[C@H]3C(C)(C)CCC[C@]3(C)C(CCc3ccoc3)=C2C)cc1	Active

Hey, just so you know, these numbers are from ChEMBL document CHEMBL4665686.
